Values from patent US11981666B2

Assay: Pharmacokinetic experiment in cynomolgus monkeys
Format: in vivo, cynomolgus monkey
Details: male, cynomolgus monkey, plasma, iv, 2 mg/kg, intravenous 2 mg/kg, individual animals #1, #2, #3
recorded endpoint: half-life (h)
Report the figure in h without appending any unit label.

Enquiry: Data request, read-out half-life, for O=C(O)c1ccc2nc(CN3CCC(c4cccc(OCc5ccc(C6COC6)cc5F)n4)CC3)n(C[C@@H]3CCO3)c2c1 [Compound 1]
Return: 1.23

---

Assay: Pharmacokinetic experiment in cynomolgus monkeys
Assay type: in vivo, cynomolgus monkey
Conditions: male, cynomolgus monkey, plasma, iv, 2 mg/kg, intravenous 2 mg/kg, Mean (n=3)
recorded endpoint: MRT inf (min)
Only the number, expressed in min, is required.

Enquiry: So what's the measured MRT inf for this one? O=C(O)c1ccc2nc(CN3CCC(c4cccc(OCc5ccc(C6COC6)cc5F)n4)CC3)n(C[C@@H]3CCO3)c2c1
Return: 17.5

---

Assay: Toxicological experiment in mice, 14-day repeated oral gavage (toxicokinetic study)
Format: in vivo, mouse
Details: ICR, mouse, po; 200 mg/kg, plasma of female animals, Day 14
recorded endpoint: AUC(0-inf) (µg·h/mL)
Express the result in µg·h/mL but write the number alone.

Enquiry: Please look up its AUC(0-inf): N#Cc1ccc(COc2cccc(C3CCN(Cc4nc5ccc(C(=O)O)cc5n4C[C@@H]4CCO4)CC3)n2)c(F)c1 [Compound 20, reference compound]
Return: 331

---

AUC(0-t): recorded values
Experiment: Toxicological experiment in mice, 14-day repeated oral gavage (toxicokinetic study)
Type: in vivo, mouse
Details: female, ICR, mouse, plasma, po, 200 mg/kg, plasma of female animals, Day 14; read-out: AUC(0-t), the systemic exposure (first value listed)
// note: answer is a bare numeric in µg·h/mL

[
  {
    "compound": "N#Cc1ccc(COc2cccc(C3CCN(Cc4nc5ccc(C(=O)O)cc5n4C[C@@H]4CCO4)CC3)n2)c(F)c1 [Compound 20, reference compound]",
    "reported measurement": 338
  }
]

Next item in the queue.
Enquiry: # query: AUC(0-t) of entry O=C(O)c1ccc2nc(CN3CCC(c4cccc(OCc5ccc(C6COC6)cc5F)n4)CC3)n(C[C@@H]3CCO3)c2c1 [Compound 1]
Return: 291

---

Assay: Toxicological experiment in mice, 14-day repeated oral gavage (toxicokinetic study)
Format: in vivo, mouse
Conditions: male, ICR, mouse, plasma, po, 200 mg/kg, plasma of male animals, Day 14; read-out: AUC(0-t) (second value listed)
recorded endpoint: AUC(0-t) (µg·h/mL)
Quick note: give the figure in µg·h/mL, leave out the unit.

Enquiry: Find the recorded AUC(0-t) belonging to O=C(O)c1ccc2nc(CN3CCC(c4cccc(OCc5ccc(C6COC6)cc5F)n4)CC3)n(C[C@@H]3CCO3)c2c1 and report it.
Return: 200

---

Target: Human GLP-1R (Homo sapiens, UniProt P43220)
Sequence (P43220 24-463): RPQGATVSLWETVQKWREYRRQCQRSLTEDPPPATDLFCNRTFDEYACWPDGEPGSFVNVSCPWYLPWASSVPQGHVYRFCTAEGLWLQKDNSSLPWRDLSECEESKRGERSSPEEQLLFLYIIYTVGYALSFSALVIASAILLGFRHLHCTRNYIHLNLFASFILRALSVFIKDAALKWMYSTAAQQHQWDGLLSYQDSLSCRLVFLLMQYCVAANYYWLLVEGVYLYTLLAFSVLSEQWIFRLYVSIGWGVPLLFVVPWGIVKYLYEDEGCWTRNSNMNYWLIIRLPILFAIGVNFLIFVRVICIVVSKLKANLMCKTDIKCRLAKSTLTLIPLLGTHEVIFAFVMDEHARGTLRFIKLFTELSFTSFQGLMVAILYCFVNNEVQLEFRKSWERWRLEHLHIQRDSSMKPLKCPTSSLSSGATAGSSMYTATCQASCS
Assay: GLP-1R agonistic activity assay (HTRF cAMP, 293A GFP-GLP-1R cells)
Settings: cAMP level, geometric mean
recorded endpoint: pEC50
pEC50 here: minus log base 10 of the concentration, concentration in moles per litre.

Enquiry: Record request: pEC50 value, item O=C(O)c1ccc2nc(CN3CCC4c5nc(OCc6ccc(C7COC7)cc6F)ccc5COCC4C3)n(C[C@@H]3CCO3)c2c1 (single isomer, unassigned) [Compound 12-B]
Return: 10.00

Enquiry: Give the measured pEC50 of O=C(O)c1ccc2nc(CN3CCC(c4cccc(OCc5ccc(C6COC6)cc5F)n4)CC3)n(CC3(CF)CC3)c2c1 [Compound 5] .
Return: 11.52

Enquiry: Look up pEC50: COc1cc(C2COC2)ccc1COc1cccc(C2CCN(Cc3nc4ccc(C(=O)O)cc4n3C[C@@H]3CCO3)CC2)n1 [Compound 3]
Return: 10.52

---

Molecular target: UniProtKB P43220
Experiment: GLP-1R agonistic activity assay (HTRF cAMP, 293A GFP-GLP-1R cells)
Conditions: cAMP level, geometric mean
pEC50: −log10 of the molar value.
# label = 1 (yes) if pEC50 >= 10 else 0 (no)

[
  {
    "record smiles": "O=C(O)c1ccc2nc(CN3CCC(c4cccc(OCc5ccc(C6COC6)cc5C(F)F)n4)CC3)n(C[C@@H]3CCO3)c2c1",
    "target": "UniProtKB P43220",
    "qualitative label": "0 (no)"
  },
  {
    "record smiles": "O=C(O)c1ccc2nc(CN3CCC(c4cccc(OCc5ccc(C6COC6)cc5F)n4)CC3)n(CC3(F)CCC3)c2c1",
    "target": "UniProtKB P43220",
    "qualitative label": "0 (no)"
  }
]

Enquiry: Determine whether this molecule has pEC50 no lower than 10: O=C(O)c1ccc2nc(Cc3ccc(-c4cccc(OCc5ccc(C6COC6)cc5F)n4)cc3F)n(CC3(CF)CC3)c2c1
Return: 1 (yes)

---

Molecular target: Human GLP-1R (Homo sapiens)
Test: GLP-1R agonistic activity assay (HTRF cAMP, 293A GFP-GLP-1R cells)
Settings: cAMP level, geometric mean
Text: The method was a competitive immunoassay.
Reported log10(EC50) values for the following compounds.
Log scale reminder: EC50 in nM, then log10 taken.

See these solved cases before continuing.
[
  {
    "compound": "O=C(O)c1ccc2nc(CN3CCC(c4cccc(OCc5ccc(C6COC6)cc5F)n4)CC3)n(C[C@@H]3CCO3)c2c1",
    "reported measurement": -1.52
  },
  {
    "compound": "N#CCC1(Cn2c(Cc3ccc(-c4cccc(OCc5ccc(C6COC6)cc5F)n4)cc3F)nc3ccc(C(=O)O)cc32)CC1",
    "reported measurement": -1.70
  },
  {
    "compound": "N#CCC1(Cn2c(CN3CCC(c4cccc(OCc5ccc(C6COC6)cc5F)n4)CC3)nc3ccc(C(=O)O)cc32)CC1",
    "reported measurement": -1.10
  },
  {
    "compound": "O=C(O)c1ccc2nc(Cc3ccc(-c4cccc(OCc5ccc(C6COC6)cc5F)n4)cc3F)n(C[C@@H]3CCO3)c2c1",
    "reported measurement": -1.96
  },
  {
    "compound": "O=C(O)c1ccc2nc(CN3CCC(c4cccc(OCc5ccc(C6COC6)cn5)n4)CC3)n(C[C@@H]3CCO3)c2c1",
    "reported measurement": -0.15
  }
]

# input for lookup
Enquiry: Can you share its log10(EC50)? I mean this compound: O=C(O)c1ccc2nc(CN3CCC4c5nc(OCc6ccc(C7COC7)cc6Cl)ccc5COCC4C3)n(CC3CCO3)c2c1 (single isomer, unassigned)
Return: -0.85

---

Assay: Toxicological experiment in mice, 14-day repeated oral gavage (toxicokinetic study)
Format: in vivo, mouse
Details: ICR, mouse, po; 200 mg/kg, plasma of male animals, Day 14
recorded endpoint: AUC(0-inf) (µg·h/mL)
Numbers only; they are read as µg·h/mL.

Enquiry: Look up AUC(0-inf) for this compound: N#Cc1ccc(COc2cccc(C3CCN(Cc4nc5ccc(C(=O)O)cc5n4C[C@@H]4CCO4)CC3)n2)c(F)c1 [Compound 20, reference compound]
Return: 254

---

Biological target: Human GLP-1R (Homo sapiens)
Assay: GLP-1R agonistic activity assay (HTRF cAMP, 293A GFP-GLP-1R cells)
Details: cAMP level, geometric mean
recorded endpoint: EC50 (nM)
All answers are understood in nM, so give the number only.

Solved cases (2 shown):
[
  {
    "compound": "O=C(O)c1ccc2nc(CN3CCC(c4cccc(OCc5ccc(C6(F)COC6)cc5F)n4)CC3)n(C[C@@H]3CCO3)c2c1 [Compound 15]",
    "unit annotation": "nM",
    "EC50": 0.08
  },
  {
    "compound": "O=C(O)c1ccc2nc(CN3CCC4=C(COCc5ccc(OCc6ccc(C7COC7)cc6F)nc54)C3)n(C[C@@H]3CCO3)c2c1 [Compound 7]",
    "unit annotation": "nM",
    "EC50": 0.1
  }
]

Enquiry: Given the entry O=C(O)c1ccc2nc(CN3CCC(c4cccc(OCc5ccc(C6COC6)cc5Cl)n4)CC3)n(C[C@@H]3CCO3)c2c1 [Compound 2] , report its measured EC50.
Return: 0.07
